growth overview
- System: HL-60(TB) leukemia
- Test summary: NCI-60 one-dose screen, 48 h (100 = growth as untreated, 0 = no growth, -100 = all killed)
- Details: 10 µM unless noted
The panel holds about 83,000 compounds, 20% with a hit somewhere; the sample as a whole holds those more often. Calls of active or inactive are those of the source. The calls were made as follows: active = growth percent below 10; inactive = the rest.
Measured parameter: growth

{"Compound": "CNC(=O)Nc1ccc(-c2nc(N3CCOCC3)nc3c2cnn3C2CCOCC2)cc1", "Measurement target": "HL-60(TB) leukemia", "Reported value": "11.3% (inactive)"}
{"Compound": "COc1ccc(NC(=O)C2c3ccccc3C(=O)N(CC(C)C)C2c2cccs2)cc1 (stereo unspecified)", "Measurement target": "HL-60(TB) leukemia", "Reported value": "90% (inactive)"}
{"Compound": "Cc1nc2cc(NC(=O)CN3CCN(CCN4C(=O)c5cccc6cccc(c56)C4=O)CC3)ccc2s1", "Measurement target": "HL-60(TB) leukemia", "Reported value": "63.9% (inactive)"}
{"Compound": "C/C(=C\\c1ccccc1)c1ccccn1", "Measurement target": "HL-60(TB) leukemia", "Reported value": "70.9% (inactive)"}
{"Compound": "O=C(O)CNC1=C(Cl)C(=O)c2ccccc2C1=O", "Measurement target": "HL-60(TB) leukemia", "Reported value": "122% (inactive)"}
{"Compound": "CCSc1nc(NC)c2cc(-c3ccc(C(F)(F)F)cc3)ccc2n1", "Measurement target": "HL-60(TB) leukemia", "Reported value": "98.3% (inactive)"}
{"Compound": "CCOC(=O)c1cc2c(=O)oc3ccccc3c2oc1=O", "Measurement target": "HL-60(TB) leukemia", "Reported value": "106% (inactive)"}
{"Compound": "CC(=O)Nc1ccc(CC[C@H]2CCC/C=C/[C@@H]3C[C@H](O)C[C@H]3[C@H](O)/C=C/C(=O)O2)cc1", "Measurement target": "HL-60(TB) leukemia", "Reported value": "-9.6% (active)"}
{"Compound": "COc1ccc(NC(=O)c2ccoc2COc2ccccc2)cc1", "Measurement target": "HL-60(TB) leukemia", "Reported value": "96.9% (inactive)"}
{"Compound": "O=C(NCc1ccccc1)Nc1ccccc1CNc1nc(Nc2ccc(OCCN3CCCC3)cc2)ncc1Cl", "Measurement target": "HL-60(TB) leukemia", "Reported value": "62.4% (inactive)"}
{"Compound": "Cc1ccccc1COc1ccc(-c2onc(C)c2-c2ccc(Cl)cc2)cc1", "Measurement target": "HL-60(TB) leukemia", "Reported value": "17.7% (inactive)"}
{"Compound": "COc1cccc2cc(-c3cc4ccccc4[nH]3)c(=NC(=O)c3ccc(Cl)cc3)oc12", "Measurement target": "HL-60(TB) leukemia", "Reported value": "72.1% (inactive)"}
{"Compound": "O=C(O)[C@@H]1c2ccccc2-c2ccccc2[C@H]1C(=O)O", "Measurement target": "HL-60(TB) leukemia", "Reported value": "91.3% (inactive)"}
{"Compound": "O=C(CN1C(=O)CCC1=O)Nc1ncc(Cc2ccc(F)cc2)s1", "Measurement target": "HL-60(TB) leukemia", "Reported value": "98.2% (inactive)"}
{"Compound": "CNCCNc1nc2ccccc2c2c(=O)c3cc(F)ccc3oc12", "Measurement target": "HL-60(TB) leukemia", "Reported value": "95.4% (inactive)"}
{"Compound": "COc1cc(-c2nc(SC(C)C)nc(Nc3cccc(C)c3)c2C#N)cc(OC)c1OC", "Measurement target": "HL-60(TB) leukemia", "Reported value": "98.3% (inactive)"}
{"Compound": "COc1cc(/C=C/C(=O)c2c(C)nc3ccccc3c2/C=C/c2ccccc2)cc(OC)c1OC", "Measurement target": "HL-60(TB) leukemia", "Reported value": "-6.84% (active)"}
{"Compound": "CC(=O)N1N=C(c2ccc(C(F)(F)F)cc2)CC1c1ccc2c(c1)OCO2 (stereo unspecified)", "Measurement target": "HL-60(TB) leukemia", "Reported value": "95.6% (inactive)"}
{"Compound": "O=C1C2C3C=CC(O3)C2C(=O)N1Nc1ccccc1 (stereo unspecified)", "Measurement target": "HL-60(TB) leukemia", "Reported value": "102% (inactive)"}
{"Compound": "COC(=O)c1ccc2c(c1)nc(-c1cc3ccccc3[nH]c1=O)n2-c1cc(C(C)(C)C)[nH]n1", "Measurement target": "HL-60(TB) leukemia", "Reported value": "-16.9% (active)"}
{"Compound": "C/C(=C\\CCc1ccoc1)CC/C=C(\\C)CCCC1COC(=O)C1 (stereo unspecified)", "Measurement target": "HL-60(TB) leukemia", "Reported value": "95.8% (inactive)"}

Recorded values, source PubChem BioAssay (NCI).
